Tested on: Glucocorticoid receptor (Homo sapiens)
Protocol summary: ATG_GR_TRANS: Attagene TRANS-FACTORIAL HepG2 Assay for human Glucocorticoid Receptor (GR) (AID 2282978);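 further: activators score as hits since higher reporter transcript over DMSO is fitted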
Protocol conditions: HepG2 Attagene TRANS GR reporter, mRNA transcription
Results filed as inconclusive are left out. The source made the active and inactive calls. How the source made its calls: active means hit-call score of the fitted dose curve at least 0.9, where 1 is the maximum; inconclusive means response in the unintended direction; inactive means score below 0.9.
// classify into active, inactive

Q: Call for entry "CC(=O)c1ccc2ccccc2c1" :
Result: inactive

* * *

Protocol summary: BSK_SAg_Proliferation: Cell Proliferation Assessment in the BioMAP Diversity Plus: SAg Assay (AID 2283095);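 further: relative cell number as total protein by SRB absorbance in sub-confluent culture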
Protocol conditions: primary human HUVEC with PBMC
Calls of active or inactive are those of the source. The calls were made as follows: active = hit-call score of the fitted dose curve at least 0.9, where 1 is the maximum; inactive = score below 0.9.
// classify into active, inactive

Q: Call for entry "C=C(F)C(=O)OC(C(F)(F)F)C(F)(F)F" :
Result: inactive

Q: Call for entry "O=S1(=O)CC(Cl)(Cl)C(Cl)(Cl)C1" :
Result: active

Q: Call for entry "CCOC(=O)C=Cc1ccccc1" :
Result: inactive

Q: Call for entry "O=C(O)C(F)(F)C(F)(F)C(F)(F)C(F)(F)C(F)(F)C(F)(F)C(F)(F)C(F)F" :
Result: inactive

Q: Call for entry "C[C@]12CC[C@@H]3c4ccc(O)cc4CC[C@H]3[C@@H]1CC[C@@H]2O" :
Result: active

Q: Call for entry "CC=CC(=O)C1=C(C)C=CCC1(C)C" :
Result: inactive

Q: Call for entry "O=C1OC2(c3ccc(O)cc3Oc3cc(O)ccc32)c2ccccc21" :
Result: active

Source of measurements: PubChem BioAssay (EPA / NIEHS)
